B1: BTBD1 (parent)
chain: FVLGKGRGAAAAGGPQRIPAHRFV

# Variants of: B1
# Protocol Description: protein stability index of a GFP-peptide fusion (GPS, HEK-293T) (PSI 1-6); higher = more stable;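 note: lentivirally expressed fusions sorted by FACS into six bins by GFP to DsRed ratio, PSI derived from sequencing read proportions per bin multiplied by bin number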
# Setup Conditions: c terminus: a fixed tail appended
Readout Kind: protein stability index

P15K ... 1.06
R7C ... 3.48
G8Y ... 1.44
A9V ... 2.21
G14C ... 2.08
P19D ... 1.53
G8L ... 1.69
P19E ... 1.78
H21R ... 2.32
G6V ... 1.69
F1C ... 2.22
